The measured values listed here are drawn from paper PMC10382406.

Listed here are compounds together with their documented IC50.
Molecular target: hFAP (Homo sapiens, UniProt Q12884)
Sequence (Q12884 whole entry): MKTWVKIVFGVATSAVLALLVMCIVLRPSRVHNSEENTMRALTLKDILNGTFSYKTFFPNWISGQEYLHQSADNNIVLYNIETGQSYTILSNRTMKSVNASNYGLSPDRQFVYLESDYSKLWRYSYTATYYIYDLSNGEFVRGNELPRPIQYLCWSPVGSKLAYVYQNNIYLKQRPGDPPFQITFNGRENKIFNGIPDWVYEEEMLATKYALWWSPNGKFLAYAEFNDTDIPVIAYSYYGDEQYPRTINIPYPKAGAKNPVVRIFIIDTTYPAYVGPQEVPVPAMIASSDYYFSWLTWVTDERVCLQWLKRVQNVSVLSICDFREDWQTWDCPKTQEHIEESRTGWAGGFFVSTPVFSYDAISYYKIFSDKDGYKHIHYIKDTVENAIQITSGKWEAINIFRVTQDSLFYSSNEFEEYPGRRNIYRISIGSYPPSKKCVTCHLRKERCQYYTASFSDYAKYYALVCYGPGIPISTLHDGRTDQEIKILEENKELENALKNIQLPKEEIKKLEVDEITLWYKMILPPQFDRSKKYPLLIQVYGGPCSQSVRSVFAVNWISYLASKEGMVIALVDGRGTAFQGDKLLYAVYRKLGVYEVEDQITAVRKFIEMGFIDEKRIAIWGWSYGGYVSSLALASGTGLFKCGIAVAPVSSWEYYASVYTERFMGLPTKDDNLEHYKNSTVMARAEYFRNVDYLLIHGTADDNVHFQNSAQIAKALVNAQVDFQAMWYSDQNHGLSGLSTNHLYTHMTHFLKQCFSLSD
Experiment: In vitro inhibition assay on hFAP (substrate Z-Gly-Pro-AMC)
Conditions: isolated hFAP 200 pM, Z-Gly-Pro-AMC 20 μM, room temperature
Method: The IC50 of all the ligands against isolated hFAP protein was assessed by an inhibition assay following published protocols (Supplementary Information and Supplementary Fig. 3). In vitro inhibition assay on hFAP The enzymatic activity of hFAP on the substrate Z-Gly-Pro-AMC was measured at room temperature on a microtiter plate reader, monitoring the fluorescence at an excitation wavelength of 360 nm and an emission wavelength of 465 nm. […]

Here are 3 compounds together with their reported answers.
CC(C)Cc1ccc(C(C)C(=O)NCC(NC(=O)CN2CCN(CC(=O)O)CCN(CC(=O)O)CCN(CC(=O)O)CC2)C(=O)N2CCN(CCCN(C)c3ccc4nccc(C(=O)NCC(=O)N5CC(F)(F)C[C@H]5C#N)c4c3)CC2)cc1 (stereo partly shown); 0.0394 nM
CN(CCCN1CCN(C(=O)CN2CCN(CC(=O)O)CCN(CC(=O)O)CCN(CC(=O)O)CC2)CC1)c1ccc2nccc(C(=O)NCC(=O)N3CC(F)(F)C[C@H]3C#N)c2c1 [FAPI-46, reference compound]; 0.247 nM
Cc1cc(-c2ccc(NC(=O)CC(NC(=O)CN3CCN(CC(=O)O)CCN(CC(=O)O)CCN(CC(=O)O)CC3)C(=O)N3CCN(CCCN(C)c4ccc5nccc(C(=O)NCC(=O)N6CC(F)(F)CC6C#N)c5c4)CC3)c(C)c2)ccc1N=Nc1ccc2c(S(=O)(=O)O)cc(S(=O)(=O)O)c(N)c2c1O (stereo not shown); 0.634 nM

Switching to the query record.
Dear colleague, I am looking for the recorded IC50 of the following compound: CN(CCCN1CCN(C(=O)CC(NC(=O)CN2CCN(CC(=O)O)CCN(CC(=O)O)CCN(CC(=O)O)CC2)C(=O)N2CCN(CCCN(C)c3ccc4nccc(C(=O)NCC(=O)N5CC(F)(F)C[C@H]5C#N)c4c3)CC2)CC1)c1ccc2nccc(C(=O)NCC(=O)N3CC(F)(F)C[C@H]3C#N)c2c1 (stereo partly shown) 0.158 nM
